# test-target: S. pyogenes DNA polymerase holoenzyme (PolC, tau-complex, β) (Streptococcus pyogenes)
# Sequence (Q8NZB5 whole entry): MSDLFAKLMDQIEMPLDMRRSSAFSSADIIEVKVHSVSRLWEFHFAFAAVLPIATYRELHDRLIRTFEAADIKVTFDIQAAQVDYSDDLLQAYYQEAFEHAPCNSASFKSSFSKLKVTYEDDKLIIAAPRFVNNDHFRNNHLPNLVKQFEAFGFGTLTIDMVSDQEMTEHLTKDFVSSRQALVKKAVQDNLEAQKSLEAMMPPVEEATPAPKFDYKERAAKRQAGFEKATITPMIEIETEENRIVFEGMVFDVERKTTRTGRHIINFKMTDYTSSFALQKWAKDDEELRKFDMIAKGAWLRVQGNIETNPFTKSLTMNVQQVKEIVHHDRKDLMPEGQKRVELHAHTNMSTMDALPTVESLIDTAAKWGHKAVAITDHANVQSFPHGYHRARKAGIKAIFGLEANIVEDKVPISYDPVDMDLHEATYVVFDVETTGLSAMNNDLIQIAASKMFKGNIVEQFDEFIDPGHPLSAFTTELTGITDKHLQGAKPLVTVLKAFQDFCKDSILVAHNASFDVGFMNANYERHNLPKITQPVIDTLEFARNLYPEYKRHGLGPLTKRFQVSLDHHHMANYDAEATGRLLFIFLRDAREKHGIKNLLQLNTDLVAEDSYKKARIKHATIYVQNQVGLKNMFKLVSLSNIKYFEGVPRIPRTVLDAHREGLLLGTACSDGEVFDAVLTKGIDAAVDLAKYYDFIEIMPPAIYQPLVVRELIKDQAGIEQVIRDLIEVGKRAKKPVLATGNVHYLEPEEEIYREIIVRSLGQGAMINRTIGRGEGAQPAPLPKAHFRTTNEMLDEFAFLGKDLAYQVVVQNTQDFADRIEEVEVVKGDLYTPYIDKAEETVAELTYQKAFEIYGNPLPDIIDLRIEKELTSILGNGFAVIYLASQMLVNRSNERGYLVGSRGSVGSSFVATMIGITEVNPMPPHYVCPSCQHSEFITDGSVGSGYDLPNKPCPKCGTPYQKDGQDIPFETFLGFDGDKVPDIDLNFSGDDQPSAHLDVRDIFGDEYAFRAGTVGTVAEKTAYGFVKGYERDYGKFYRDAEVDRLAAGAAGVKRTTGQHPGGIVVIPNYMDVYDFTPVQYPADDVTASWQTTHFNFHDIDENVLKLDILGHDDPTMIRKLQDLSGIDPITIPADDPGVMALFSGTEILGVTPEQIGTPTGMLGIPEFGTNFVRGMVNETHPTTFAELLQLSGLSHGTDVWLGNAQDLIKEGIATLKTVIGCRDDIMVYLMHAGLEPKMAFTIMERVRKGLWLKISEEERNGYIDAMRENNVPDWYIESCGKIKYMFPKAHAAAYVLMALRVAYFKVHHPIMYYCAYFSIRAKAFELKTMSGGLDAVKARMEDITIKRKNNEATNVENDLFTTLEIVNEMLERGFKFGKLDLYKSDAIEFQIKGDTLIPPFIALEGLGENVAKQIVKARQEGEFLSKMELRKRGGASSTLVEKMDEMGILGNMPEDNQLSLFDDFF
# Sequence (Q7DAL6 1-556 partner): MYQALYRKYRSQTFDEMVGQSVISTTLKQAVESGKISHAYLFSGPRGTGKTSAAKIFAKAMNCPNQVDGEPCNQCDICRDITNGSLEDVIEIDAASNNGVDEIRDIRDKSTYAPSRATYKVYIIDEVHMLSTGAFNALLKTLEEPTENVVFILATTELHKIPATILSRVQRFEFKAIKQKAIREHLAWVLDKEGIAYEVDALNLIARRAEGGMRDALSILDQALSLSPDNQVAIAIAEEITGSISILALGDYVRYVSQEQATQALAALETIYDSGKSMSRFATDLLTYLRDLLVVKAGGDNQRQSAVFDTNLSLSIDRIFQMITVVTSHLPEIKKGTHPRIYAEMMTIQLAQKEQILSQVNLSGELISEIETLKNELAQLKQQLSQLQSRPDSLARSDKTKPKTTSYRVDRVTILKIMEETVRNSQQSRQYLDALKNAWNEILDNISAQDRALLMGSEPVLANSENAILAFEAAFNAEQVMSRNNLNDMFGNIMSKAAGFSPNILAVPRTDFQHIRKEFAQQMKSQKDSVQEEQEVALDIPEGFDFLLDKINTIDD
# Sequence (Q7DAL5 1-346 partner): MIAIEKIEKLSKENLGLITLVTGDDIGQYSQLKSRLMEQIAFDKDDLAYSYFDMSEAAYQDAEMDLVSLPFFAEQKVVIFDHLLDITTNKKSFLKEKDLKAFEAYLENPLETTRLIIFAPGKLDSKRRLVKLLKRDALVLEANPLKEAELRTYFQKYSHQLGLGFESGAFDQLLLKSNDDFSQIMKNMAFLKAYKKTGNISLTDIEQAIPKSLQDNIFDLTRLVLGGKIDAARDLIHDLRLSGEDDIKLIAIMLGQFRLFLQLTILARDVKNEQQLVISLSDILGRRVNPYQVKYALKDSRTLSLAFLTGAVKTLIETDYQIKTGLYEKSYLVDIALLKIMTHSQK
# Sequence (Q9A209 1-378 partner): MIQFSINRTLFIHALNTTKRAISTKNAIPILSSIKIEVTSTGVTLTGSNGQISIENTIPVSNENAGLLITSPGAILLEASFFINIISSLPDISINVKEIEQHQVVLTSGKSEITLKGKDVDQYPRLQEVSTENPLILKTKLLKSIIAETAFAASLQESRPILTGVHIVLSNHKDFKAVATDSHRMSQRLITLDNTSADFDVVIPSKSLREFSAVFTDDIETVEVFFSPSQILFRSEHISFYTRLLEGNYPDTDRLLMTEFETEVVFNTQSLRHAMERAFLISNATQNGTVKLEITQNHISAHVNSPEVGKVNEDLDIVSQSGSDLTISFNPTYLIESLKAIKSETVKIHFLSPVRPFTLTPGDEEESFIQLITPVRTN
# assay-conditions: read-out: IC50 S. pyog.
endpoint-name: pIC50
API: returns pIC50 as number; meaning -log10 of concentration in mol/L.

A selection of reference data follows.
Jot down pIC50 (S. pyogenes DNA polymerase holoenzyme (PolC, tau-complex, β) (Streptococcus pyogenes)) of "COc1ccc([N+](=O)[O-])cc1/C=C1\SC(=S)NC1=O" . 4.05

Jot down pIC50 (S. pyogenes DNA polymerase holoenzyme (PolC, tau-complex, β) (Streptococcus pyogenes)) of "O=C1NC(=S)S/C1=C\c1cc(F)c(F)cc1F" . 3.92

Jot down pIC50 (S. pyogenes DNA polymerase holoenzyme (PolC, tau-complex, β) (Streptococcus pyogenes)) of "O=C1NC(=S)S/C1=C\c1c(Cl)cccc1Cl" . 3.99

Jot down pIC50 (S. pyogenes DNA polymerase holoenzyme (PolC, tau-complex, β) (Streptococcus pyogenes)) of "C/N=C1\NC(=O)/C(=C/c2ccc(Cl)c(Cl)c2)S1" . 3.95

Jot down pIC50 (S. pyogenes DNA polymerase holoenzyme (PolC, tau-complex, β) (Streptococcus pyogenes)) of "O=C1NC(=S)S/C1=C\c1cc2c(cc1[N+](=O)[O-])OCO2" . 4.01

More entries:
Jot down pIC50 (S. pyogenes DNA polymerase holoenzyme (PolC, tau-complex, β) (Streptococcus pyogenes)) of "O=C1NC(=S)S/C1=C\c1cc([N+](=O)[O-])ccc1Cl" . 4.09
